test system: MDR; test: Apparent permeability across apical to basolateral side in MDCK cells expressing MDR; assay type: ADME, cell-based, Canis lupus familiaris; details: dog, MDCK-MDR1
compounds and their reported Papp A→B
A number alone suffices; assume ×10⁻⁶ cm/s.

See these solved cases before continuing.
compound=CN(C)[C@H]1CCN(c2ccc3c(C(=O)NCC4CCC(F)(F)CC4)c(Cl)ccc3n2)C1 meas_value=6
compound="O=C(NCC1CCCC(F)(F)C1)c1c(Cl)ccc2nc(N3CC[C@@H](F)C3)ccc12 (some centres undefined)" meas_value=16.4
compound=O=C(NCC1CCC(F)(F)CC1)c1c(Cl)ccc2nc(N3CCCC3)ccc12 meas_value=31.8
compound="C[C@@H]1CCC[C@@](O)(CNC(=O)c2c(Cl)ccc3nc(N4CCC(N(C)C)C4)ccc23)C1 (some centres undefined)" meas_value=1.4
compound=C[C@@H]1CCC[C@@](O)(CNC(=O)c2c(Cl)ccc3nc(N4CC[C@@H](C(C)(C)O)C4)ccc23)C1 meas_value=1.5

Dear colleague, I am looking for the recorded Papp A→B of the following compound: CN(C)[C@@H]1CCN(c2ccc3c(C(=O)NCC4CCC(F)(F)CC4)c(Cl)ccc3n2)C1
6.2

Moving on to the next compound: O=C(NCC1CCC(F)(F)CC1)c1c(Cl)ccc2nc(N3CCC(CCO)C3)ccc12 (centres undefined)
16.5

# iterate: O=C(NC[C@]1(O)CCCC(F)(F)C1)c1c(Cl)ccc2nc(N3CC[C@@H](F)C3)ccc12
6.8

----------
Biological target: UniProt:Q64663
Sequence (Q64663 whole entry): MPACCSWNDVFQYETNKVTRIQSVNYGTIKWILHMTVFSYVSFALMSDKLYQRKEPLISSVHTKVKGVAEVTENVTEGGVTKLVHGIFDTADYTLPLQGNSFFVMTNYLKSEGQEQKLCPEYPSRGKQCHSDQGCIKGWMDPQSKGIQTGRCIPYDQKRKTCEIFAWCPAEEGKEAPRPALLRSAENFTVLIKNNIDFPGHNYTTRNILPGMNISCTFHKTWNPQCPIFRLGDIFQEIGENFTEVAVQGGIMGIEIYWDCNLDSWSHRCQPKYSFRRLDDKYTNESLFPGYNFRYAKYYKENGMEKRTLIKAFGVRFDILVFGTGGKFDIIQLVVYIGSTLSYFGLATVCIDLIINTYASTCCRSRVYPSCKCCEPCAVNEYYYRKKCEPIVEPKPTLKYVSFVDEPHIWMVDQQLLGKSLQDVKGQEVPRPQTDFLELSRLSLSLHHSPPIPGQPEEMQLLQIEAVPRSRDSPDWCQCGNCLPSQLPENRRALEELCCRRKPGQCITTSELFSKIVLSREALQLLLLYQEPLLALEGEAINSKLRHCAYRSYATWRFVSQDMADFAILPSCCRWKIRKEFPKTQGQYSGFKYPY
Assay: Antagonist activity at rat P2X7 receptor assessed as inhibition of BzATP-induced YO PRO dye uptake preincubated for 20 mins followed by YO PRO dye and BzATP addition measured after 30 mins by fluorescence assay
Parameter: pIC50
Bear in mind: pIC50 is minus log10 of a mol/L concentration; give just that figure.

Please review the following examples before continuing.
molecule="C[C@@H]1CCC[C@@](O)(CNC(=O)c2c(Cl)ccc3nc(N4CCC(N(C)C)C4)ccc23)C1 (stereo partly specified)" tested_system=UniProt:Q64663 meas_value=6.26
molecule=C[C@H]1CCC[C@@](O)(CNC(=O)c2c(Cl)ccc3nc(N4CC[C@@H](F)C4)ccc23)C1 tested_system=UniProt:Q64663 meas_value=6.19
molecule="O=C(NCC1(O)CCCC(F)(F)C1)c1c(Cl)ccc2nc(N3CC[C@H](F)C3)ccc12 (stereo partly specified)" tested_system=UniProt:Q64663 meas_value=5.03
molecule=O=C(NC[C@]1(O)CCCC(F)(F)C1)c1c(Cl)ccc2nc(N3CC[C@@H](F)C3)ccc12 tested_system=UniProt:Q64663 meas_value=5.37
molecule=O=C(NCC1CCC(F)(F)CC1)c1c(Cl)ccc2nc(N3CC[C@H](F)C3)ccc12 tested_system=UniProt:Q64663 meas_value=5.29

Here is the next item to consider.
Can you share its pIC50? I mean this molecule: C[C@@H]1CCC[C@@](O)(CNC(=O)c2c(Cl)ccc3nc(N4CC[C@@H](C(C)(C)O)C4)ccc23)C1
6.89

----------
assay: Oral bioavailability in mouse at 0.5 mg/kg; assay type: ADME, organism-based; settings: in vivo
Reported bioavailability values for the following molecules.
Field format: number, assumed %, no unit text.

molecule=O=C(NCC1CCC(F)(F)CC1)c1c(Cl)ccc2nc(N3CC[C@H](F)C3)ccc12 meas_value=31

Now let's try a different one.
# lookup: bioavailability of O=C(NCC1(O)CCCC(F)(F)C1)c1c(Cl)ccc2nc(N3CC[C@H](F)C3)ccc12 (some centres not stated)
32

----------
assay: Intrinsic clearance in rat liver microsomes; format: ADME, Microsome; conditions: read-out: CLH
Examples of compounds with documented microsomal CLint follow.

As a guide, the following entries are already answered.
compound=C[C@H]1CCC[C@@](O)(CNC(=O)c2c(Cl)ccc3nc(N4CC[C@@H](F)C4)ccc23)C1 meas_value="23 µL/min/mg"
compound="O=C(NCC1CCCC(F)(F)C1)c1c(Cl)ccc2nc(N3CC[C@@H](F)C3)ccc12 (some centres undefined)" meas_value="102 µL/min/mg"

Consider the compound O=C(NCC1CCC(F)(F)CC1)c1c(Cl)ccc2nc(N3CCC(NCCO)C3)ccc12 (centres undefined) and give its measured microsomal CLint.
10 µL/min/mg

Another compound to check: O=C(NCC1CCC(F)(F)CC1)c1c(Cl)ccc2nc(N3CCCC3)ccc12
57 µL/min/mg

Ok, now O=C(NCC1(O)CCCC(F)(F)C1)c1c(Cl)ccc2nc(N3CC[C@H](F)C3)ccc12 (some centres undefined)
23 µL/min/mg

----------
biological target: P2X purinoceptor 7 (Homo sapiens); experiment: Antagonist activity at P2X7R in LPS-stimulated human THP1 cells assessed as inhibition of BzATP-induced IL-1beta release preincubated for 30 mins followed by BzATP stimulation and measured after 30 mins by sandwich ELISA
Sequence (Q99572 whole entry): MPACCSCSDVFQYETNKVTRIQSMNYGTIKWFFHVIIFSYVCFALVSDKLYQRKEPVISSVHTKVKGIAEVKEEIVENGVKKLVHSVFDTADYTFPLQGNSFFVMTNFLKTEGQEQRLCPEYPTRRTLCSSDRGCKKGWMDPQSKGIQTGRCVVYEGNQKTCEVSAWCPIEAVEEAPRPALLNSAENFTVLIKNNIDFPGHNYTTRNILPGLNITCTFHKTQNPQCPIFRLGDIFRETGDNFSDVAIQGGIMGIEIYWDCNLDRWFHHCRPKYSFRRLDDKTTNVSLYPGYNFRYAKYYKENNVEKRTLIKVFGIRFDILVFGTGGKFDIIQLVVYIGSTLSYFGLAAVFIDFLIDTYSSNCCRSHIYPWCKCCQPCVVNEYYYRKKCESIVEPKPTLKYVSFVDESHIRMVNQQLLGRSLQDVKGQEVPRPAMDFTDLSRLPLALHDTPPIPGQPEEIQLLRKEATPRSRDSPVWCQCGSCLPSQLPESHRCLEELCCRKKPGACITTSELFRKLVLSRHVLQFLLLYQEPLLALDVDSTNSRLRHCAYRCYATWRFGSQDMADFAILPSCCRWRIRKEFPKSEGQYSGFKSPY
IC50 strictly under 0.07 µM means 1 (yes); at 0.07 µM or over means 0 (no).

Example entries and their recorded answers appear below.
compound=CN(C)[C@H]1CCN(c2ccc3c(C(=O)NCC4CCC(F)(F)CC4)c(Cl)ccc3n2)C1 category="0 (no)"
compound=O=C(NC[C@]1(O)CCCC(F)(F)C1)c1c(Cl)ccc2nc(N3CC[C@@H](F)C3)ccc12 category="1 (yes)"
compound=O=C(NCC1CCC(F)(F)CC1)c1c(Cl)ccc2nc(C3=CCCC3)ccc12 category="0 (no)"
compound="O=C(NCC1(O)CCCC(F)(F)C1)c1c(Cl)ccc2nc(N3CC[C@H](F)C3)ccc12 (stereo not given in full)" category="1 (yes)"
compound=O=C(NCC1CCC(F)(F)CC1)c1c(Cl)ccc2nc(NCCO)ccc12 category="0 (no)"
compound=CC1(C)OB(C2=CCCC2)OC1(C)C category="0 (no)"

IC50 strictly < 0.07 µM for this compound? O=C(NCC1CCC(F)(F)CC1)c1c(Cl)ccc2ncccc12
0 (no)

Try this compound too: C[C@H]1CCC[C@@](O)(CNC(=O)c2c(Cl)ccc3nc(N4CC[C@@H](F)C4)ccc23)C1
1 (yes)

Next compound up: O=C(NCC1CCC(F)(F)CC1)c1c(Cl)ccc2nc(N3CC[C@@H](F)C3)ccc12
0 (no)

Same read-out for C[C@@H]1CCC[C@@](O)(CNC(=O)c2c(Cl)ccc3nc(N4CC[C@@H](C(C)(C)O)C4)ccc23)C1 ?
1 (yes)

O=C(NCC1CCCC(F)(F)C1)c1c(Cl)ccc2nc(N3CC[C@@H](F)C3)ccc12 (stereo not given in full) ?
0 (no)

Now consider O=C(NCC1CCC(F)(F)CC1)c1c(Cl)ccc2nc(N3CC[C@H](F)C3)ccc12 .
0 (no)

Request: COCCOc1ccc2c(C(=O)NCC3CCC(F)(F)CC3)c(Cl)ccc2n1
0 (no)

Same question, CN(C)[C@@H]1CCN(c2ccc3c(C(=O)NCC4CCC(F)(F)CC4)c(Cl)ccc3n2)C1 this time
1 (yes)

Queued: O=C(NCC1CCC(F)(F)CC1)c1c(Cl)ccc2nc(N3CCC(NCCO)C3)ccc12 (stereo not given)
1 (yes)

Same question, O=C(NCC1CCC(F)(F)CC1)c1c(Cl)ccc2nc(C3CCCC3)ccc12 this time
0 (no)

Thanks! And C[C@@H]1CCC[C@@](O)(CNC(=O)c2c(Cl)ccc3nc(N4CCC(N(C)C)C4)ccc23)C1 (stereo not given in full) ?
1 (yes)

Try this compound too: COCCNc1ccc2c(C(=O)NCC3CCC(F)(F)CC3)c(Cl)ccc2n1
0 (no)

Check O=C(NCC1CCC(F)(F)CC1)c1c(Cl)ccc2nc(N3CCC(CCO)C3)ccc12 (stereo not given) too.
0 (no)

The measured values listed here are drawn from ChEMBL document CHEMBL4340547.
